Reported normalized growth is given for each of the following compounds.
procedure summary: chemical genetic growth profiling, strain panel (AID 1159580);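 also: tested at 20 µM; growth read once vehicle control cultures reached saturation at 30 °C; 1 = growth at the plate median or of vehicle wells; lower values mean less growth of the strain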
details: S. cerevisiae deletion strains, growth OD, locus YHR013C, strain ard1, active compounds read low
The campaign covered roughly 5,500 compounds. About 2,000 (36%) were called active. Another 18% or so got no clear call; they are omitted. The list shows a part of the results.

Illustrative cases are given below, each with its answer.
compound	value reported
O=C(O)c1cn(-c2ccc(F)cc2)c2cc(N3CCNCC3)c(F)cc2c1=O	0.982 (inactive)
O=C(O)c1cc(=O)c2ccccc2o1	0.978 (inactive)

Tell me the measured normalized growth of CC(=O)O[C@@H]1CC2C(C)(C)CCC(=O)[C@]2(C)C2CC[C@@]3(C)[C@H](c4ccoc4)OC(=O)C4OC43[C@@]21C (stereo partly drawn) , please. 0.994 (inactive)

###

procedure summary: chemical genetic growth profiling, strain panel (AID 1159580);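 also: tested at 20 µM; growth read once vehicle control cultures reached saturation at 30 °C; 1 = growth at the plate median or of vehicle wells; lower values mean less growth of the strain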
details: S. cerevisiae deletion strains, growth OD, locus YLR342W, strain FKS1 (second series)
About 2,000 (36%) of roughly 5,500 compounds were called active. Inconclusive results (about 18%) are left out. Rule as the data show it: active = normalized growth mostly below about 0.91 (no sharp cut-off); inconclusive = no clear call, values can overlap the other calls; inactive = mostly above about 0.92. Some of the results follow.
The reply should name one outcome from 1 for active, -1 for inactive

Worked set:
molecule	cat
O=C1CC[C@]23C=CC(=O)NCCCCNCCCNC(=O)/C=C/c4ccc(c2c4)O[C@@H]3C1	-1
CN(N=O)C(=O)N[C@@H]1[C@@H](O)[C@H](O)[C@@H](CO)O[C@@H]1O	-1
CCOC(=O)C1C(C=C(C)C)C1(C)C (stereo not given)	-1
CCCN1C[C@H](CSC)C[C@@H]2c3cccc4[nH]cc(c34)C[C@H]21	-1
CC1=NCCc2c1[nH]c1cc(O)ccc21	-1

What call does the record list for COCCOC(=O)C1=C(C)NC(C)=C(C(=O)OC(C)C)C1c1cccc([N+](=O)[O-])c1 (stereo not given) ? -1

###

Reported normalized growth is given for each of the following compounds.
procedure summary: chemical genetic growth profiling, strain panel (AID 1159580);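 also: tested at 20 µM; growth read once vehicle control cultures reached saturation at 30 °C; 1 = growth at the plate median or of vehicle wells; lower values mean less growth of the strain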
details: S. cerevisiae deletion strains, growth OD, locus YML016C, strain PPZ1, active compounds read low
Among all 5,500 compounds or so, about 2,000 (36%) were called active. Not shown: some 18% with an inconclusive outcome. The list shows a part of the results.
Reply briefly: the number, and no unit.

compound	value reported
Cc1cc(=O)c2c(O)c3c(cc2o1)OC(C)(C)CC3	1.01
Cc1cc(=O)c2c(O)c3c(cc2o1)OCC(C)CC3 (configuration not stated)	0.976
COc1c(O)cc2c(-c3ccccc3)cc(=O)oc2c1OC	1
NCCc1ccc(O)c(O)c1	0.991
C=CCCCCCCCCCCCC(O)CC(O)CO (configuration not stated)	0.988
C=CCCCCCCCCCCCC(O)CC(O)CO (configuration not stated) (tested in a mixture with another compound)	0.218

Tell me the measured normalized growth of O=c1c(-c2cc(O)c(O)c(O)c2)coc2cc(O)c(O)c(O)c12 , please. 0.853

###

procedure summary: chemical genetic growth profiling, strain panel (AID 1159580);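 also: tested at 20 µM; growth read once vehicle control cultures reached saturation at 30 °C; 1 = growth at the plate median or of vehicle wells; lower values mean less growth of the strain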
details: S. cerevisiae deletion strains, growth OD, locus YPR119W, strain clb2
Among all 5,500 compounds or so, about 2,000 (36%) were called active. Another 18% or so got no clear call; they are omitted. Cut-off read from the data, not from the text of the source: active = normalized growth mostly below about 0.91 (no sharp cut-off); inconclusive = no clear call, values can overlap the other calls; inactive = mostly above about 0.92. Some of the results follow.
The reply should name one outcome from yes = active, no = inactive

Worked set:
compound	cat
COc1c2c(cc3c1OCO3)CC[N+](C)=C2	no
C[C@@H]1CC[C@@]2(OC1)OC1C(O)C3C4CC[C@H]5C[C@H](O[C@@H]6O[C@H](CO)[C@H](O[C@@H]7O[C@H](CO)[C@@H](O)[C@H](O[C@@H]8OC[C@@H](O)[C@H](O)[C@H]8O)[C@H]7O[C@@H]7O[C@H](CO)[C@H](O)[C@H](O[C@@H]8O[C@H](CO)[C@@H](O)[C@H](O)[C@H]8O)[C@H]7O)[C@H](O)[C@H]6O)[C@H](O)C[C@]5(C)C4CC[C@]3(C)C1[C@@H]2C (stereo partly drawn)	yes
CC1=C2C(=CO[C@H](C)[C@H]2C)C(=O)C(C(=O)O)=C1O	no
Nc1ccc(C(=O)O)c(O)c1 (tested in a mixture with another compound)	no
C#CCOS(=O)OC1CCCCC1Oc1ccc(C(C)(C)C)cc1 (stereo not drawn)	no

What call does the record list for COc1ccc(-c2cc(=O)c3c(OC(C)=O)cc(OC(C)=O)cc3o2)cc1 ? no

What call does the record list for CCCN1C[C@H](CSC)C[C@@H]2c3cccc4[nH]cc(c34)C[C@H]21 ? no

What call does the record list for CCC/C=C/C=C/[C@@H]1C[C@@H](O)[C@@H](O)C(=O)[C@H]1C=O ? no

What call does the record list for COc1ccc(-c2coc3cc(O)cc(O)c3c2=O)cc1 ? yes

What call does the record list for COc1cccc2c1cc([N+](=O)[O-])c1c(C(=O)O)cc3c(c12)OCO3 ? no

What call does the record list for CCOC(=O)C1C(C=C(C)C)C1(C)C (stereo not drawn) ? no

What call does the record list for CC(=O)O[C@@H]1CC2C(C)(C)[C@H](O)C[C@H](O)[C@]2(C)C2CC[C@@]3(C)[C@H](c4ccoc4)OC(=O)[C@H]4O[C@]43[C@@]21C (stereo partly drawn) ? no

What call does the record list for COc1cc2cc[n+]3cc4c(OC)c(OC)ccc4cc3c2cc1OC ? no

What call does the record list for COc1cc([C@@H]2c3cc4c(cc3[C@H](O)[C@H]3COC(=O)[C@@H]23)OCO4)cc(OC)c1OC ? no

What call does the record list for CC(=O)O[C@H]1C[C@H](O[C@H]2[C@@H](O)C[C@H](O[C@H]3[C@@H](O)C[C@H](O[C@H]4CC[C@@]5(C)C(CCC6C5C[C@@H](O)[C@]5(C)[C@@H](C7=CC(=O)OC7)CC[C@]65O)C4)O[C@@H]3C)O[C@@H]2C)O[C@H](C)[C@H]1O[C@@H]1O[C@H](CO)[C@@H](O)[C@H](O)[C@H]1O (stereo partly drawn) ? no

What call does the record list for CC(C)(Oc1ccc(Cl)cc1)C(=O)O ? no

What call does the record list for COc1ccc2cc3[n+](cc2c1OC)CCc1cc2c(cc1-3)OCO2 ? yes

What call does the record list for CC(=O)O[C@@H]1CC2C(C)(C)C(=O)CC[C@]2(C)C2CC[C@@]3(C)[C@H](c4ccoc4)OC(=O)C4OC43[C@@]21C (stereo partly drawn) ? no

What call does the record list for CC(=O)O[C@@H]1CC2C(C)(C)CCC(=O)[C@]2(C)C2CC[C@@]3(C)[C@H](c4ccoc4)OC(=O)C4OC43[C@@]21C (stereo partly drawn) ? no

What call does the record list for CC1(C)O[C@@H]2CC3C4C[C@H](F)C5=CC(=O)C=C[C@]5(C)[C@@]4(F)[C@@H](O)C[C@]3(C)[C@]2(C(=O)CO)O1 (stereo partly drawn) ? no

The measurements presented in this section are drawn from PubChem BioAssay AID1159580.
